Source: ChEMBL document CHEMBL1201862

Overview of recorded GI50 for various compounds
Tested on: KM12
EXPERIMENTAL_DETAILS: NCI tumour cell line growth inhibition, 48 h
Activity calls are given as the source filed them. Cut-off read from the data, not from the text of the source: active = GI50 up to about 1.1 µM and inactive = higher.
RESULT_TYPE: GI50

1. CC(C)N(Cc1ccccc1)S(=O)(=O)c1nc(C(C)(C)C)n[nH]1 | > 100 µM (inactive)
2. FC(F)(F)C12C34C=CC5(CCC6(C=CC1(CC3)O6)C52C(F)(F)F)O4 (configuration not stated) | > 100 µM (inactive)
3. ClC(Cl)(Cl)C(N1CCN(c2ccccc2)CC1)N1CCN(c2ccccc2)CC1 | > 100 µM (inactive)
4. COc1cc(Oc2nc3cc(F)c(F)cc3nc2-c2ccccc2)cc(OC)c1OC | 35 µM (inactive)
5. CCCCN(C)C(=O)C1=C(C)NC(C)=C(C(=O)N(C)CCCC)C1 | > 100 µM (inactive)
6. CN1N=C(c2ccncc2)OC1c1cccc(C(F)(F)F)c1 (configuration not stated) | > 100 µM (inactive)
7. C=C1C(=O)OC2/C=C(/CO)C3(O)CC(O)C(C)(CC(OC(=O)/C(C)=C/C)C12)O3 (configuration not stated) | 20.5 µM (inactive)
8. c1ccc2c(c1)[nH]c1c2ncc2[nH]c3ccccc3c21 | 3.06 µM (inactive)
9. CCCCCCc1ccc(O)cc1O [HEXYLRESORCINOL] | 62.2 µM (inactive)
10. Oc1ccc2ccccc2c1CCc1c(O)ccc2ccccc12 | 11.8 µM (inactive)
11. c1ccc2cc(NCNc3ccc4ccccc4c3)ccc2c1 | 13.6 µM (inactive)
12. N#Cc1c(-c2ccc([N+](=O)[O-])cc2)c2c([nH]c1=O)-c1ccccc1CCC2 | 40.7 µM (inactive)
13. COc1cc(C)c(/C=C/C(=O)N2C(=O)OC[C@@H]2c2ccccc2)c(C)c1 | 61.9 µM (inactive)
14. N#Cc1c(C#N)c(-c2ccccc2)n(/N=C\c2ccccc2)c1N | 26.9 µM (inactive)
15. COC(=O)C(/C(=N\O)C(=O)Nc1cccc(Cl)c1C)c1cnc2ccccc2n1 (configuration not stated) | > 100 µM (inactive)
16. CCC1(C)C=Cc2c(cc(O)c3c(=O)c4ccccc4n(C)c23)O1 (configuration not stated) | > 10 µM (inactive)
17. O=c1[nH]cnc2cccc(Cl)c12 | > 100 µM (inactive)
18. CCCCCCCCOc1ccc(/C=C/C2=[N+](CCO)CCO2)cc1 | 3.27 µM (inactive)
19. C#CCOCn1cnc2c(Sc3c([N+](=O)[O-])ncn3C)ncnc21 | > 100 µM (inactive)
20. CCCCNC(=O)Cn1c2ccc(Br)cc2c2nc3ccccc3nc21 | > 100 µM (inactive)
21. CC(=O)OC1CC[C@@]2(C)C(CC(OC3OC(CO)C(O)C(O)C3O)[C@]3(C)C2CCC24CC23CC[C@H]4C(C)CC(O)[C@@H](O)C(C)(C)O)C1(C)C (some centres not stated) | 10.5 µM (inactive)
22. O=C(N/N=C\c1cccc2ccccc12)Nc1ccccc1 | > 100 µM (inactive)

###

Overview of recorded GI50 for various molecules
Test system: LOX IMVI
EXPERIMENTAL_DETAILS: NCI tumour cell line growth inhibition, 48 h
The source made the active and inactive calls. No stated cut-off is given here; in the data, active = GI50 up to about 1.1 µM and inactive = higher.
RESULT_TYPE: GI50

1. COC(C(=O)C(O)C(C)O)C1CC2C=C3C=C(OC4CC(OC5CC(O)C(OC)C(C)O5)C(OC(C)=O)C(C)O4)C(C)C(O)=C3C(O)=C2C(=O)C1OC1CC(OC2CC(OC3CC(C)(O)C(OC(=O)C(C)C)C(C)O3)C(O)C(C)O2)C(O)C(C)O1 (centres undefined) | < 0.01 µM (active)
2. Cc1ccc2nc(CN3CCCCC3)cc(=O)n2c1 | > 100 µM (inactive)
3. Cc1ccc(C2(O)CC(c3ccc([N+](=O)[O-])o3)=NN2C(=O)COc2ccccc2Cl)cc1 (centres undefined) | 5.45 µM (inactive)
4. CCOc1nc2c(N3CCCC3)nc(N3CCNCC3)nc2nc1NCc1ccccc1 | 1.36 µM (inactive)
5. COc1cccc(/C=C2\C(=O)N(C(=O)c3ccc(NC(C)=O)cc3)N=C2C)c1 | > 100 µM (inactive)
6. CCCC(=O)NC(Nc1ccc(S(=O)(=O)Nc2nc(C)cc(C)n2)cc1)(C(F)(F)F)C(F)(F)F | > 100 µM (inactive)
7. Nc1cc[nH]c(=O)n1 | > 100 µM (inactive)
8. CC(=O)OC1C2CCC1C1C2N=NN1c1ccc([N+](=O)[O-])cc1 (centres undefined) | > 100 µM (inactive)
9. CCNc1nnc(CSc2nc(-c3ccccc3)c(-c3ccccc3)[nH]2)s1 | 16.5 µM (inactive)
